# Test system: Staphylococcus aureus
# methodDescription: Antimicrobial activity against Staphylococcus aureus after 24 hr by two-fold serial dilution method
# Type: functional
valueType: MIC (µg/mL)
Return type: number; implicit unit µg/mL.

molecule: Cc1ccc(C2NC(c3ccc(C)cc3)C3CCCC2C32NNC(=S)N2)cc1 (stereo not given)
experimentalSystem: Staphylococcus aureus
MIC [µg/mL]: 50
//
molecule: Fc1ccc(C2NC(c3ccc(F)cc3)C3CCCC2C32NNC(=S)N2)cc1 (stereo not given)
experimentalSystem: Staphylococcus aureus
MIC [µg/mL]: 6.25
//
molecule: COc1ccc(C2NC(c3ccc(OC)cc3)C3CCCC2C32NNC(=S)N2)cc1 (stereo not given)
experimentalSystem: Staphylococcus aureus
MIC [µg/mL]: 100
//
molecule: S=C1NNC2(N1)C1CCCC2C(c2ccccc2)NC1c1ccccc1 (stereo not given)
experimentalSystem: Staphylococcus aureus
MIC [µg/mL]: 100

[Q] Fetch value of MIC on Staphylococcus aureus for `O=C(O)c1cn(C2CC2)c2cc(N3CCNCC3)c(F)cc2c1=O` .
[A] 12.5

---

# Test system: Vibrio cholerae
# methodDescription: Antimicrobial activity against Vibrio cholerae after 24 hr by two-fold serial dilution method
# Type: functional
valueType: MIC (µg/mL)
Return type: number; implicit unit µg/mL.

Would you please look over these solved cases?
molecule: Fc1ccc(C2NC(c3ccc(F)cc3)C3CCCC2C32NNC(=S)N2)cc1 (stereo not drawn)
experimentalSystem: Vibrio cholerae
MIC (µg/mL): 12.5
//
molecule: S=C1NNC2(N1)C1CCCC2C(c2ccc(Br)cc2)NC1c1ccc(Br)cc1 (stereo not drawn)
experimentalSystem: Vibrio cholerae
MIC (µg/mL): 25
//
molecule: S=C1NNC2(N1)C1CCCC2C(c2ccccc2)NC1c1ccccc1 (stereo not drawn)
experimentalSystem: Vibrio cholerae
MIC (µg/mL): 50

[Q] State its MIC for this molecule: O=[N+]([O-])c1ccc(C2NC(c3ccc([N+](=O)[O-])cc3)C3CCCC2C32NNC(=S)N2)cc1 (stereo not drawn)
[A] 25

[Q] State its MIC for this molecule: COc1ccc(C2NC(c3ccc(OC)cc3)C3CCCC2C32NNC(=S)N2)cc1 (stereo not drawn)
[A] 50

[Q] State its MIC for this molecule: S=C1NNC2(N1)C1CCCC2C(c2ccc(Cl)cc2)NC1c1ccc(Cl)cc1 (stereo not drawn)
[A] 25

[Q] State its MIC for this molecule: O=C(O)c1cn(C2CC2)c2cc(N3CCNCC3)c(F)cc2c1=O [CIPROFLOXACIN]
[A] 25

[Q] State its MIC for this molecule: Cc1ccc(C2NC(c3ccc(C)cc3)C3CCCC2C32NNC(=S)N2)cc1 (stereo not drawn)
[A] 50

---

# System: Staphylococcus aureus
# methodDescription: Antimicrobial activity against Staphylococcus aureus after 24 hr by two-fold serial dilution method
# Type: functional
valueType: MIC (µg/mL)
Return type: number; implicit unit µg/mL.

molecule: S=C1NNC2(N1)C1CCCC2C(c2ccc(Cl)cc2)NC1c1ccc(Cl)cc1 (stereo not drawn)
experimentalSystem: Staphylococcus aureus
MIC, µg/mL: 12.5

[Q] State its MIC for this molecule: O=[N+]([O-])c1ccc(C2NC(c3ccc([N+](=O)[O-])cc3)C3CCCC2C32NNC(=S)N2)cc1 (stereo not drawn)
[A] 12.5

[Q] State its MIC for this molecule: S=C1NNC2(N1)C1CCCC2C(c2ccc(Br)cc2)NC1c1ccc(Br)cc1 (stereo not drawn)
[A] 12.5
